- Test system: 633275-114-R-J1-PDC complex spheroids, viability;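 further: spheroids exposed to the agents for seven days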
- assay text: Anticancer human tumor 633275-114-R-J1-PDC patient-derived endometrial adenocarcinoma cell line growth inhibition [GQUAD]; active means viability on the fitted dose curve at most 10% of control; inactive means the rest
- experimental conditions: second compound 0.0316 µM; first compound 3.16 µM
// one of active, inactive, no free text

Asked: Would you mind telling me which call this test gave COc1cccc2c1C(=O)c1c(O)c3c(c(O)c1C2=O)CC(O)(C(=O)CO)CC3OC1CC(N)C(O)C(C)O1 (stereo not drawn) + Cc1[nH]c2ccc(F)cc2c1-c1nc2c3cccnc3c3ncccc3c2[nH]1 ?
Given back: active

Asked: Would you mind telling me which call this test gave C=CCn1c(=O)c2cnc(Nc3ccc(N4CCN(C)CC4)cc3)nc2n1-c1cccc(C(C)(C)O)n1 + Cc1cnc(CNC(=O)c2c(=O)c3ccc(N4CCCN(C)CC4)nc3n3c2sc2ccccc23)cn1 ?
Given back: inactive

Asked: Would you mind telling me which call this test gave C#Cc1c(F)ccc2cc(O)cc(-c3ncc4c(N5CC6CCC(C5)N6)nc(OCC56CCCN5CC(F)C6)nc4c3F)c12 (stereo not drawn) + CN(C)c1ccc(Nc2c3ccc(NC(=O)CCN4CCCC4)cc3nc3cc(NC(=O)CCN4CCCC4)ccc23)cc1 ?
Given back: inactive
